Values from BigSolDB 2.1

conditions-used: in 2-ethoxyethanol, 288.15 K
endpoint-name: solubility (mole fraction)
Keep the answer to the number alone.

Request: Query solubility (mole fraction) for CNC[C@H](O)c1cccc(O)c1.Cl
Response: 0.0386

###

conditions-used: in n-propanol, 288.15 K
endpoint-name: solubility (mole fraction)
Please give the numeric answer without any surrounding text.

Request: Please give measured solubility (mole fraction) of the following entry: CNC[C@H](O)c1cccc(O)c1.Cl
Response: 0.00728

###

conditions-used: in 2-propoxyethanol, 283.15 K
endpoint-name: solubility (mole fraction)
Give a plain numeric answer without units written out.

Request: Supply reported solubility (mole fraction) belonging to this molecule: CNC[C@H](O)c1cccc(O)c1.Cl
Response: 0.01

###

conditions-used: in isopropanol, 323.15 K
endpoint-name: solubility (mole fraction)
Respond with the number and no other words.

Request: Dear colleague, please send me the reported solubility (mole fraction) for CNC[C@H](O)c1cccc(O)c1.Cl when you can.
Response: 0.0138

###

conditions-used: in n-propanol, 303.15 K
endpoint-name: solubility (mole fraction)
# respond with the number and nothing more

Request: Let me know recorded solubility (mole fraction) for CNC[C@H](O)c1cccc(O)c1.Cl , thanks.
Response: 0.0133

###

conditions-used: in 2-butoxyethanol, 323.15 K
endpoint-name: solubility (mole fraction)

Request: For the molecule CNC[C@H](O)c1cccc(O)c1.Cl , report solubility (mole fraction).
Response: 0.0372

###

conditions-used: in ethanol, 308.15 K
endpoint-name: solubility (mole fraction)
The answer should be a number; do not append a unit.

Request: Check the records and state solubility (mole fraction) for CNC[C@H](O)c1cccc(O)c1.Cl
Response: 0.0404

###

conditions-used: in 2-butoxyethanol, 288.15 K
endpoint-name: solubility (mole fraction)
Keep it simple and answer with nothing but the number.

Request: Could you please provide reported solubility (mole fraction) for CNC[C@H](O)c1cccc(O)c1.Cl ? Thanks!
Response: 0.00811

###

conditions-used: in 2-propoxyethanol, 318.15 K
endpoint-name: solubility (mole fraction)
Number, no unit, nothing else.

Request: Please report solubility (mole fraction) for the following molecule: CNC[C@H](O)c1cccc(O)c1.Cl
Response: 0.0462

###

conditions-used: in 2-butoxyethanol, 283.15 K
endpoint-name: solubility (mole fraction)
// print number alone

Request: Please give measured solubility (mole fraction) of the following entry: CNC[C@H](O)c1cccc(O)c1.Cl
Response: 0.00611

###

conditions-used: in 2-butoxyethanol, 318.15 K
endpoint-name: solubility (mole fraction)
Lab note: record the figure alone, no unit after it.

Request: Specify solubility (mole fraction) for CNC[C@H](O)c1cccc(O)c1.Cl and stop.
Response: 0.0306

###

conditions-used: in NMP, 323.15 K
endpoint-name: solubility (mole fraction)
Give a plain numeric answer without units written out.

Request: Supply measured solubility (mole fraction) of CNC[C@H](O)c1cccc(O)c1.Cl in your reply.
Response: 0.246

###

conditions-used: in 2-butoxyethanol, 303.15 K
endpoint-name: solubility (mole fraction)
The response must contain the number and no unit.

Request: Provide measured solubility (mole fraction) value, entry: CNC[C@H](O)c1cccc(O)c1.Cl
Response: 0.016

###

conditions-used: in 2-methoxyethanol, 298.15 K
endpoint-name: solubility (mole fraction)
# print the numeric value only

Request: Using known records, supply solubility (mole fraction) for CNC[C@H](O)c1cccc(O)c1.Cl
Response: 0.147
